Data credit: patent US20100261660A1

measurement target: T1, Soluble CTLA-4-Ig (extracellular domain of human CTLA-4 fused to the Fc portion of human IgG1) (human, UniProt P16410 36-161, FITC-conjugated in the FACS binding assays)
T1 construct: extracellular domain; bought from R&D Systems; also called sCTLA-4-Ig; CTLA-4-Ig Fc; not shown: Fc portion of human IgG1
T1 sequence (P16410 36-161): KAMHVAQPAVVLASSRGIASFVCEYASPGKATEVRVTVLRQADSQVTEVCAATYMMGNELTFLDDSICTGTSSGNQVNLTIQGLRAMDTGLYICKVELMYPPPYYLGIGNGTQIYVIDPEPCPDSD
procedure summary: competitive FACS on transfected cells, FITC-sCTLA-4-Ig with biotin-sCD28-Ig; grade 0-2 of CTLA-4/CD28 ratio vs WT hB7-1
Provide the reported Binding Score of each item.
Simply state the number, no unit and no words.

Binding Score for Round 2 CTLA4BP 2x1-f10 (ligand) VIHVTKEVKEVATLSCGHNVSVEELAQTRIHWQKEKKMVLTMMSGDMNIWPEYKNRTIFDITNNLSIVILALRPSDEGTYECVVLKYEKDAFKREHLAEVMLSVKADFPTPSITDFEIPPSNIRRIICSTSGGFPEPRLAWMEDGEELNAINTTVSQDPGTELYAVSSKLDFNMTTNHSFMCLIKYGHLRVNQTFNWNTPKQEHFPDNLLPSWAITLISVNGISVICCLTYCFAPRCRERRRNERLRRESVCPV is 1

Binding Score for Round 2 CTLA4BP 5x1-d7 (ligand) VIHVTKEVKEVATLSCGHNVPVEELAQTRIYWQKEKKMVLTMMSGDMNIWPEYKNRTIFDITNNLSIVILALRPSDEGTYGCVVLEYEKDAFKREHLAEVMLSVKADFPTPSITDLEIPPSNIRRIICSTSGGFPEPHLFWLENGEELNAINTTASQDPETELYAVSSKLDFNMTTNHSFMCLIKYGHLRVNQTFNWNTPKQEHFPDNLLPSWAITLISANGIFVICCLTYCFAPRCRERRRNERLRRESVHPV is 1
